Assay: A CellTox Green Cytotoxicity Assay to monitor cytotoxicity in HEK293 cells - 32 hour (AID 1224881); further: nearly all actives have a fitted effect of over 40% in size
Conditions: CellTox Green fluorescence; series mostly up to 76.8 µM
Inconclusive results are not listed. Activity calls are given as the source filed them. The call rests on the fitted dose curve; in most records, active means well fitted activation curve with a large enough effect in the repeat runs; inconclusive means weak or mixed curves; inactive means flat fitted curve, though single readings scatter.
quantity: outcome

CCCCCCC[CH2][Sn]([Cl])([Cl])[CH2]CCCCCCC :: inactive
CC[N+]1(CC)CCC(OC(=O)C(O)(c2ccccc2)c2ccccc2)C1 (stereo unspecified) :: inactive
CCCC[N+]1(C)CCCC1 (tested in a mixture with another compound) :: inactive
O=C(N[C@H]1N=C(c2ccccc2F)c2cccc3c2N(CC3)C1=O)c1cc2ccccc2[nH]1 :: inactive
CCC(C)Br (stereo unspecified) :: inactive
CNC(C)(C)Cc1ccccc1 :: inactive
CCOP(=S)(OCC)SC(CCl)N1C(=O)c2ccccc2C1=O (stereo unspecified) :: inactive
CC#C[C@]1(O)CC[C@H]2[C@@H]3C[C@H](C)C4=CC(=O)CC[C@]4(C)[C@H]3CC[C@@]21C :: inactive

Return reported outcome; argument: O=[N+]([O-])c1ccc(CCl)cc1
inactive

Please answer likewise for O=P(Cl)(Cl)Cl
inactive

Please answer likewise for CC(Cc1ccc(OCC(=O)O)cc1)NCC(O)c1csc(C(F)(F)F)n1 (stereo unspecified)
inactive
